System: large crabgrass (Digitaria sanguinalis)
assay_notes: Test A pre-/postemergence plant response
Type: in vivo
assay_setup: Postemergence, 125 g ai/ha; 0 to 100 scale where 0 is no effect and 100 is complete control
Hi, to clarify the labels: Fulfilled covers Plant response rating, Crabgrass, Large from 40 upward, Not fulfilled covers anything below 40.

Does the molecule `CCn1c(-c2cc(F)cc(F)c2)ncc(C(=O)C2=C(O)CCCC2=O)c1=O` have recorded Plant response rating, Crabgrass, Large that is 40 or more?
Fulfilled

Does the molecule `CCc1ccc(-n2c(-c3cccc(C)c3)ncc(C(=O)C3=C(O)CCCC3=O)c2=O)cc1` have recorded Plant response rating, Crabgrass, Large that is 40 or more?
Not fulfilled

Does the molecule O=C1CCCC(O)=C1C(=O)c1cnc(-c2ccccc2)n(C2CC[S+]([O-])CC2)c1=O (mixture of isomers) have recorded Plant response rating, Crabgrass, Large that is 40 or more?
Fulfilled

Does the molecule `CCCn1c(-c2cccc(F)c2)ncc(C(=O)C2=C(O)CCCC2=O)c1=O` have recorded Plant response rating, Crabgrass, Large that is 40 or more?
Fulfilled

Does the molecule `COCCn1c(-c2cccc(Br)c2)ncc(C(=O)C2=C(O)CCCC2=O)c1=O` have recorded Plant response rating, Crabgrass, Large that is 40 or more?
Fulfilled

Does the molecule `C#CCn1c(-c2cc(F)cc(F)c2)ncc(C(=O)C2=C(O)CCCC2=O)c1=O` have recorded Plant response rating, Crabgrass, Large that is 40 or more?
Fulfilled

====

Test system: Surinam grass (Brachiaria decumbens)
assay_notes: Test B pre-/postemergence plant response
Format: in vivo
assay_setup: 62 g ai/ha, postemergence; 0 is no effect, 100 is complete control; 13 to 15 days
Recorded measurements of Surinam Grass plant response rating (0 to 100 scale), one per entry
// return a plain number; no unit text

Give Surinam Grass plant response rating (0 to 100 scale) (Surinam grass (Brachiaria decumbens)) of the following compound: O=C1CCCC(O)=C1C(=O)c1cnc(C2CC2)n(-c2ccccc2)c1=O [Compound 87]
75

Give Surinam Grass plant response rating (0 to 100 scale) (Surinam grass (Brachiaria decumbens)) of the following compound: CCCCCCn1c(-c2ccccc2)ncc(C(=O)C2=C(O)CCCC2=O)c1=O [Compound 94]
60

Give Surinam Grass plant response rating (0 to 100 scale) (Surinam grass (Brachiaria decumbens)) of the following compound: CCCn1c(-c2cccc(OC)c2)ncc(C(=O)C2=C(O)CCCC2=O)c1=O [Compound 100]
65

Further cases:
Give Surinam Grass plant response rating (0 to 100 scale) (Surinam grass (Brachiaria decumbens)) of the following compound: O=C1CCCC(O)=C1C(=O)c1cnc(-c2ccccc2)n(C2CC2)c1=O [Compound 90]
65

Give Surinam Grass plant response rating (0 to 100 scale) (Surinam grass (Brachiaria decumbens)) of the following compound: O=C1CCCC(O)=C1C(=O)c1cnc(-c2cccc(Br)c2)n(-c2ccccc2)c1=O [Compound 69]
90

Give Surinam Grass plant response rating (0 to 100 scale) (Surinam grass (Brachiaria decumbens)) of the following compound: O=C1CCCC(O)=C1C(=O)c1cnc(-c2ccsc2)n(CC2CCCO2)c1=O (stereo not drawn) [Compound 98]
75

====

System: morningglory (Ipomoea spp.)
assay_notes: Test A pre-/postemergence plant response
Type: in vivo
assay_setup: Postemergence, 500 g ai/ha; 0 to 100 scale, 0 = no effect, 100 = complete control; approx. ten days
readout: Plant response rating, Morningglory
// return a plain number; no unit text

Given the molecule O=C1CCCC(O)=C1C(=O)c1cnc(-c2cccs2)n(CC2CCCO2)c1=O (centres unmarked) [Compound 109] , what is its reported Plant response rating, Morningglory?
100

Further cases:
Given the molecule COc1ccccc1-n1c(-c2ccccc2)ncc(C(=O)C2=C(O)CCCC2=O)c1=O [Compound 15] , what is its reported Plant response rating, Morningglory?
50

Given the molecule O=C1CCCC(O)=C1C(=O)c1cnc(-c2ccc(Cl)cc2)n(-c2ccccc2)c1=O [Compound 25] , what is its reported Plant response rating, Morningglory?
90

Given the molecule Cc1ccc(F)c(-n2c(-c3ccccc3)ncc(C(=O)C3=C(O)CCCC3=O)c2=O)c1 [Compound 51] , what is its reported Plant response rating, Morningglory?
100

Given the molecule CCCn1c(-c2ccccc2)ncc(C(=O)C2=C(O)CCCC2=O)c1=O [Compound 50] , what is its reported Plant response rating, Morningglory?
80
